Every entry's value here was drawn from ChEMBL document CHEMBL3853295.

test description: Cytotoxicity against human SH-SY5Y cells after 72 hrs by MTT assay
Type: functional, cell-based
pIC50: −log10 of the molar value.

>  <compound>
Cc1cc(C)cc(Nc2cc(CN(CCCl)CCCl)nc3c(C#N)cnn23)c1

>  <value relation sign>
<

>  <pIC50>
4.00

$$$$
>  <compound>
Cc1ccccc1Nc1cc(CN(CCCl)CCCl)nc2c(C#N)cnn12

>  <value relation sign>
<

>  <pIC50>
4.00

$$$$
>  <compound>
N#Cc1cnn2c(Nc3ccc(Cl)cc3)cc(CN(CCCl)CCCl)nc12

>  <value relation sign>
=

>  <pIC50>
4.30

$$$$
>  <compound>
CNC(=O)c1cc(Oc2ccc(NC(=O)Nc3ccc(Cl)c(C(F)(F)F)c3)cc2)ccn1 [SORAFENIB]

>  <value relation sign>
=

>  <pIC50>
4.56

$$$$
>  <compound>
N#Cc1cnn2c(Nc3ccc(N(CCCl)CCCl)cc3)cc(CN3CCC(N4CCCCC4)CC3)nc12

>  <value relation sign>
=

>  <pIC50>
5.22

$$$$

* * *

test description: Cytotoxicity against human SH-SY5Y cells after 72 hrs by MTT assay
Format: functional, cell-based
# note: exactly 50 µM is not below, so it is criterion not met; use criterion met for IC50 strictly under it

>  <chemical smiles>
Cc1cc(Nc2cc(CN(CCCl)CCCl)nc3c(C#N)cnn23)ccc1F

>  <label>
criterion not met

$$$$
>  <chemical smiles>
CN(C)Cc1cc(Nc2cccc(N(CCCl)CCCl)c2)n2ncc(C#N)c2n1

>  <label>
criterion met

$$$$
>  <chemical smiles>
COc1cc(Nc2cc(CN(CCCl)CCCl)nc3c(C#N)cnn23)cc(OC)c1

>  <label>
criterion not met

$$$$
>  <chemical smiles>
N#Cc1cnn2c(Nc3ccc(F)c(Cl)c3)cc(CN(CCCl)CCCl)nc12

>  <label>
criterion not met

$$$$
>  <chemical smiles>
N#Cc1cnn2c(Nc3cccc(N(CCCl)CCCl)c3)cc(CN3CCC(CO)CC3)nc12

>  <label>
criterion met

$$$$
>  <chemical smiles>
N#Cc1cnn2c(Nc3cccc(N(CCCl)CCCl)c3)cc(CN3CCC(N4CCCCC4)CC3)nc12

>  <label>
criterion met

$$$$
>  <chemical smiles>
N#Cc1cnn2c(Nc3ccc(F)c(C(F)(F)F)c3)cc(CN(CCCl)CCCl)nc12

>  <label>
criterion not met

$$$$
>  <chemical smiles>
Cc1cccc(Nc2cc(CN(CCCl)CCCl)nc3c(C#N)cnn23)c1

>  <label>
criterion not met

$$$$
>  <chemical smiles>
N#Cc1cnn2c(Nc3cccc(N(CCCl)CCCl)c3)cc(CN3CCC(O)CC3)nc12

>  <label>
criterion met

$$$$

* * *

test description: Cytotoxicity against human GES-1 cells assessed as reduction in cell viability after 72 hrs by MTT assay
Assay type: toxicity, cell-based, GES1
# note: exactly 10 µM is not below, so it is N; use Y for IC50 at 72 h strictly under it

>  <chemical smiles>
CC1CCN(Cc2cc(Nc3ccc(N(CCCl)CCCl)cc3)n3ncc(C#N)c3n2)CC1

>  <label>
N

$$$$
>  <chemical smiles>
CN(C)Cc1cc(Nc2ccc(N(CCCl)CCCl)cc2)n2ncc(C#N)c2n1

>  <label>
N

$$$$
>  <chemical smiles>
CNC(=O)c1cc(Oc2ccc(NC(=O)Nc3ccc(Cl)c(C(F)(F)F)c3)cc2)ccn1

>  <label>
N

$$$$
>  <chemical smiles>
CN(C)C1CCN(Cc2cc(Nc3ccc(N(CCCl)CCCl)cc3)n3ncc(C#N)c3n2)CC1

>  <label>
N

$$$$
>  <chemical smiles>
CCN1CCN(Cc2cc(Nc3ccc(N(CCCl)CCCl)cc3)n3ncc(C#N)c3n2)CC1

>  <label>
N

$$$$
>  <chemical smiles>
N#Cc1cnn2c(Nc3ccc(N(CCCl)CCCl)cc3)cc(CN3CCC(N4CCCCC4)CC3)nc12

>  <label>
Y

$$$$
>  <chemical smiles>
N#Cc1cnn2c(Nc3ccc(N(CCCl)CCCl)cc3)cc(CN3CCCC3)nc12

>  <label>
N

$$$$
>  <chemical smiles>
CN1CCN(Cc2cc(Nc3ccc(N(CCCl)CCCl)cc3)n3ncc(C#N)c3n2)CC1

>  <label>
Y

$$$$
